Test system: maximal electroshock seizures (MES)
test: animal or person
Assay type: in vivo, male Carworth Farms number-1 mice
testConditions: 30 minutes, 100 mg/kg, mice i.p.
property: MES

The reported MES of the compound Nc1cc(C(=O)O)nc2cc(Cl)cc(Cl)c12 was 0/3

The reported MES of the compound CCOC(=O)c1cc(NC)c2c(Cl)cc(Cl)cc2n1 was 0/3

The reported MES of the compound COC(=O)c1cc(N)c2c(Cl)cc(Cl)cc2n1 was 0/3

The reported MES of the compound CNc1cc(C(=O)O)nc2cc(Cl)cc(Cl)c12 [5,7-di-Cl-4-methylamino-kyn-2-COOH] was 0/3

The reported MES of the compound CNc1cc(C(=O)OC)nc2cc(Cl)cc(Cl)c12 was 0/3

The reported MES of the compound CCCCOC(=O)c1cc(NC)c2c(Cl)cc(Cl)cc2n1 was 0/3
